assay: yeast display, Sf9 membrane polyspecificity reagent, FACS + sequencing; frameworks hold sequencing errors
MEASUREMENT_KIND: polyreactivity (PSR sort gate)

QVQLVESGGGLVQAGGSLRLSCAASGRIFSFYAMGWYRQAPGKERELVAAITYTDGSTYADSVKGRFTISRDNAKNTVYLQMNSLKPEDTAVYYCATRYRWTPYDYWGQGTQVTVSS ... low polyreactivity
QVQLVESGGGLVQAGGSLRLSCAASGGIFRLYGMGWYRQAPGKERELVAAIRQSGGRTYYADSVKGRFTISRDNAKNTVYLQMNSLKPEDTAVYYCAADLLYRSSGTVRSDYSRYDYWGQGTQVTVSS ... low polyreactivity
QVQLVESGGGLVQAGGSLRLSCAASGFIFIYNAMGWYRQAPGKERELVAAITGSDGGTFYADSVKGRFTISRDNAKNTVYLQMNSLKPEDTAVYYCNADIVGFQWGYDYWGQGTQVTVSS ... low polyreactivity
